- test_system: HLA-B*58:01
- experimental_protocol: IEDB peptide-MHC binding, purified MHC/direct/fluorescence; filed as Kd, often an IC50 or EC50 that approximates it; bounds were set here for any values at or beyond the usual limits of such assays
- assay_conditions: source organism: Mycobacterium avium 104

{"columns": ["biopolymer_sequence", "Kd"],
 "data": [
  ["EHVQGDIDL", "≥ 20 µM"]
]}

###

- test_system: HLA-B*57:01
- experimental_protocol: IEDB peptide-MHC binding, purified MHC/competitive/radioactivity; filed as Kd, often an IC50 or EC50 that approximates it; bounds were set here for any values at or beyond the usual limits of such assays
- assay_conditions: source organism: Dengue virus 2 Jamaica/1409/1983
pKd: −log10 of the molar value.

{"columns": ["biopolymer_sequence", "pKd"],
 "data": [
  ["GSSIGQMFET", 5.97],
  ["MKITAEWLW", 7.36],
  ["TSSQQKADW", 7.54]
]}

###

- test_system: HLA-B*58:01
- experimental_protocol: IEDB peptide-MHC binding, purified MHC/direct/fluorescence; filed as Kd, often an IC50 or EC50 that approximates it; bounds were set here for any values at or beyond the usual limits of such assays
- assay_conditions: source organism: Salmonella enterica subsp. enterica serovar Typhimurium
pKd: −log10 of the molar value.
reported_metric: pKd

{"columns": ["biopolymer_sequence", "measured"],
 "data": [
  ["KSNGAQQWL", 6.45]
]}

###

- test_system: HLA-A*26:03
- experimental_protocol: IEDB peptide-MHC binding, purified MHC/competitive/fluorescence; filed as Kd, often an IC50 or EC50 that approximates it; bounds were set here for any values at or beyond the usual limits of such assays
- assay_conditions: source organism: Mycolicibacterium gilvum PYR-GCK

{"columns": ["biopolymer_sequence", "Kd"],
 "data": [
  ["ALYLLDGLR", "1 µM"]
]}

###

- test_system: HLA-A*23:01
- experimental_protocol: IEDB peptide-MHC binding, purified MHC/competitive/radioactivity; filed as Kd, often an IC50 or EC50 that approximates it; bounds were set here for any values at or beyond the usual limits of such assays
- assay_conditions: source organism: Mammarenavirus tacaribeense

{"columns": ["biopolymer_sequence", "Kd [nM]"],
 "data": [
  ["SFYCDPKRFF", 491]
]}

###

- test_system: HLA-A*11:01
- experimental_protocol: IEDB peptide-MHC binding, purified MHC/direct/fluorescence; filed as Kd, often an IC50 or EC50 that approximates it; bounds were set here for any values at or beyond the usual limits of such assays
- assay_conditions: source organism: Rickettsia prowazekii
pKd: −log10 of the molar value.

{"columns": ["biopolymer_sequence", "pKd"],
 "data": [
  ["KIFEYGFTF", 6.42]
]}

###

- test_system: HLA-A*03:01
- experimental_protocol: IEDB peptide-MHC binding, purified MHC/direct/fluorescence; filed as Kd, often an IC50 or EC50 that approximates it; bounds were set here for any values at or beyond the usual limits of such assays
- assay_conditions: source organism: Haemophilus influenzae
reported_metric: Kd (µM)

{"columns": ["biopolymer_sequence", "test_system", "value_unit", "measured"],
 "data": [
  ["GTEMFRHGY", "HLA-A*03:01", "µM", 2.73]
]}

###

- test_system: HLA-B*39:01
- experimental_protocol: IEDB peptide-MHC binding, purified MHC/direct/fluorescence; filed as Kd, often an IC50 or EC50 that approximates it; bounds were set here for any values at or beyond the usual limits of such assays
- assay_conditions: source organism: Mycobacterium avium 104
pKd: −log10 of the molar value.

{"columns": ["biopolymer_sequence", "test_system", "pKd"],
 "data": [
  ["EHVQGDIDL", "HLA-B*39:01", 6.65]
]}
